Here, each record is paired with measured melting point data.
Answer format: numeric, °C implied, no suffix.

Prompt: Fill in: melting point of CCc1nc2cc(Cl)ccn2c1C(=O)NCc1ccc(N2CCCCC2C)cc1 (centres unmarked) is ___
Completion: 117.9

Prompt: What about this compound? CCc1nc2ccc(Cl)cn2c1C(=O)NCc1ccc(N2CCN3CCCC3C2)cc1 (centres unmarked)
Completion: 163

====

Target: Human 5-lipoxygenase (Homo sapiens)
Construct: purchased Cayman 60402; host or cells: insect cells
Experiment: Activity of compounds against 5-LO enzyme (LTB4 measurement and/or fluorescence method)
Type: biochemical
Conditions: 5-LO, single concentration of 10 uM in duplicate
readout: inhibition at 10 µM

{"compound": "Cc1nc2ccc(-c3ccccc3)cn2c1C(=O)NCc1ccccc1 [compound 39]", "inhibition at 10 µM": "< 40%"}
{"compound": "CCc1nc2cc(Cl)ccn2c1C(=O)NCc1ccc(OCc2ccc(F)cc2)cc1 [compound 173]", "inhibition at 10 µM": "40 to 69%"}
{"compound": "CCc1nc2ccc(C)cn2c1C(=O)NCc1ccc(Oc2ccccc2)cc1 [compound 58]", "inhibition at 10 µM": "> 69%"}
{"compound": "CCc1nc2cc(Cl)ccn2c1C(=O)NCc1ccc(N2CCC3CCCCC3C2)cc1 (centres unmarked) [compound 222]", "inhibition at 10 µM": "< 40%"}
{"compound": "CCc1nc2ccc(Cl)cn2c1C(=O)NCc1ccc(C#N)cc1 [compound 134]", "inhibition at 10 µM": "< 40%"}

Prompt: If you can, please state the reported inhibition at 10 µM value of CCc1nc2ccc(Cl)cn2c1C(=O)NCc1ccc(N2CCC(CO)CC2)cc1 [compound 230] .
Completion: < 40%

Prompt: Continue with CCc1nc2ccc(Cl)cn2c1C(=O)NCc1ccc(N2CCC(Oc3ccc(Cl)cc3)CC2)cc1 [compound 166]
Completion: 40 to 69%

Prompt: Item: CCc1nc2ccc(Cl)cn2c1C(=O)NCc1ccn(-c2ccc(OC(F)(F)F)cc2)n1 [compound 132]
Completion: 40 to 69%

Prompt: Queued: CCc1nc2c(F)cccn2c1C(=O)NCc1ccc(N2CCC(c3ccc(OC(F)(F)F)cc3)CC2)cc1 [compound 373]
Completion: 40 to 69%

Prompt: # repeat for Cc1nc2ccc(Cl)cn2c1C(=O)NCc1ccccc1 [compound 17]
Completion: < 40%

Prompt: Now the compound CCc1nc2cc(Cl)ccn2c1C(=O)NCc1ccc(-c2ccc(Cl)cc2C(F)(F)F)cc1 [compound 103]
Completion: > 69%

====

readout: melting point

Examples from the recorded data:
{"molecule": "CCc1nc2ccc(Cl)cn2c1C(=O)NCc1ccc(N2CCC(O)(c3ccc(F)cc3)CC2)cc1 [compound 306]", "recordedValue": "173.5 °C"}
{"molecule": "CCc1nc2ccc(Cl)cn2c1C(=O)NCc1cccc(N2CCC(c3ccc(OC(F)(F)F)cc3)CC2)c1 [compound 354]", "recordedValue": "135.5 to 136.4 °C"}
{"molecule": "CCc1nc2cc(Cl)ccn2c1C(=O)NCc1ccc(Oc2ccc(F)cc2)nc1 [compound 188]", "recordedValue": "167 to 167.6 °C"}

Now turn to the next molecule.
Prompt: Looking for the measured melting point of CCc1nc2ccc(Cl)cn2c1C(=O)NCc1nc2cc(Cl)ccc2n1C [compound 368] , can you help?
Completion: > 220 °C

====

Molecular target: Human 5-lipoxygenase (Homo sapiens, UniProt P09917)
Construct: purchased Cayman 60402; host or cells: insect cells
Experiment: Activity of compounds against 5-LO enzyme (LTB4 measurement and/or fluorescence method)
Format: biochemical
Conditions: 5-LO, single concentration of 10 uM in duplicate
readout: inhibition at 10 µM

{"molecule": "CCc1nc2ccc(Cl)cn2c1C(=O)NCc1ccc(-c2ccc(C#N)cc2C)cc1 [compound 104]", "recordedValue": "40 to 69%"}
{"molecule": "CCc1nc2cc(Cl)ccn2c1C(=O)NCc1ccc(Oc2ccc(Cl)cc2)cc1 [compound 161]", "recordedValue": "> 69%"}
{"molecule": "CCc1nc2cc([N+](=O)[O-])ccn2c1C(=O)NCc1ccc(N2CCC(Oc3ccc(OC(F)(F)F)cc3)CC2)cc1 [compound 312]", "recordedValue": "> 69%"}

Prompt: Which inhibition at 10 µM reading was recorded for the molecule CCc1nc2cc(Cl)ccn2c1C(=O)NCc1ccn(-c2ccc(OC(F)(F)F)cc2)n1 [compound 133] ?
Completion: 40 to 69%

====

Target: Human 5-lipoxygenase (Homo sapiens, UniProt P09917)
Construct: purchased Cayman 60402; host or cells: insect cells
Sequence (P09917 1-674): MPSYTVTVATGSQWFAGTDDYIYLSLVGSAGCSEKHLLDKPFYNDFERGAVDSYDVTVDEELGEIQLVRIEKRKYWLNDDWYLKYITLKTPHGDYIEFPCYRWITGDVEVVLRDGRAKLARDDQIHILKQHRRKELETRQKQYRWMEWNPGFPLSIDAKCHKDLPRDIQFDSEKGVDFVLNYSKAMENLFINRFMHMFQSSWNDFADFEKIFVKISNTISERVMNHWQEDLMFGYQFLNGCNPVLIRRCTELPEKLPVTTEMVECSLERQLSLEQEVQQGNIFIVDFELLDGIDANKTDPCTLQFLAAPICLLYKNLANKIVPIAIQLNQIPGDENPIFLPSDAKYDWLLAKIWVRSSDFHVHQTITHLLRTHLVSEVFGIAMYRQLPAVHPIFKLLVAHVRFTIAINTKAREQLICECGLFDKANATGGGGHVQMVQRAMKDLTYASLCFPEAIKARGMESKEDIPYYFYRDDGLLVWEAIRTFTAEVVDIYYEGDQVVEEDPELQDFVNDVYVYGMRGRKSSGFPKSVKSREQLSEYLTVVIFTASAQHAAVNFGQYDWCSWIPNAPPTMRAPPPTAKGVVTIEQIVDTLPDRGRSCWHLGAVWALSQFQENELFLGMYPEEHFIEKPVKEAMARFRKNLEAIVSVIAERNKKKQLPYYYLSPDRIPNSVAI
Test: Activity of compounds against 5-LO enzyme (LTB4 measurement and/or fluorescence method)
Type: biochemical
Conditions: 5-LO, single concentration of 10 uM in duplicate
Description: The activity of compounds against 5-LO were determined by measuring LTB4 (leukotriene B4) levels and/or by a fluorescence method. Both approaches are outlined in more detail below; […] Relative quantification of LTB4 and LTB4-d4 (Internal Standard) was done using multi reaction monitoring (MRM) of the transitions of m/z 335→195 for LTB4, 339→197 for LTB4-d4 in electrospray ionization (ESI) negative mode. […]
Measured inhibition at 10 µM values are reported for all entries that follow.

Examples with their reported inhibition at 10 µM follow.
{"compound": "CCc1nc2c(OC)cccn2c1C(=O)NCc1ccc(N2CCN(c3ccc(F)cc3)CC2)cc1 [compound 263]", "inhibition at 10 µM": "40 to 69%"}
{"compound": "CCc1nc2ccc(Cl)cn2c1C(=O)NCc1ccc(N2CCC(NC(=O)c3ccc(F)cc3)CC2)cc1 [compound 318]", "inhibition at 10 µM": "< 40%"}

Prompt: So what does the record say about inhibition at 10 µM for CCc1nc2ccccn2c1C(=O)NCc1ccc(Oc2ccccc2)cc1 [compound 45] ?
Completion: < 40%

Prompt: Queued: CCc1nc2ccc(Cl)cn2c1C(=O)NCc1nc2ccc(Cl)cc2n1C [compound 367]
Completion: < 40%

Prompt: Then CCc1nc2cc(Cl)ccn2c1C(=O)NCc1ccc(-c2ccc(OC)cc2)cc1 [compound 113] ?
Completion: 40 to 69%

Prompt: What do we get for CCc1nc2ccc(Cl)cn2c1C(=O)NC1CCN(Cc2ccc(OC(F)(F)F)cc2)CC1 [compound 309] ?
Completion: 40 to 69%

Prompt: Next: CCc1nc2c(OC(F)F)cccn2c1C(=O)NCc1ccc(N2CCOCC2)cc1 [compound 279]
Completion: < 40%

Prompt: Would you kindly repeat that for CCc1nc2ccccn2c1C(=O)NCc1ccc(N2CCC(c3ccc(F)cc3)CC2)cc1 [compound 265] ?
Completion: > 69%

====

Biological target: Human 5-lipoxygenase (Homo sapiens, UniProt P09917)
Construct: purchased Cayman 60402; host or cells: insect cells
Sequence (P09917 1-674): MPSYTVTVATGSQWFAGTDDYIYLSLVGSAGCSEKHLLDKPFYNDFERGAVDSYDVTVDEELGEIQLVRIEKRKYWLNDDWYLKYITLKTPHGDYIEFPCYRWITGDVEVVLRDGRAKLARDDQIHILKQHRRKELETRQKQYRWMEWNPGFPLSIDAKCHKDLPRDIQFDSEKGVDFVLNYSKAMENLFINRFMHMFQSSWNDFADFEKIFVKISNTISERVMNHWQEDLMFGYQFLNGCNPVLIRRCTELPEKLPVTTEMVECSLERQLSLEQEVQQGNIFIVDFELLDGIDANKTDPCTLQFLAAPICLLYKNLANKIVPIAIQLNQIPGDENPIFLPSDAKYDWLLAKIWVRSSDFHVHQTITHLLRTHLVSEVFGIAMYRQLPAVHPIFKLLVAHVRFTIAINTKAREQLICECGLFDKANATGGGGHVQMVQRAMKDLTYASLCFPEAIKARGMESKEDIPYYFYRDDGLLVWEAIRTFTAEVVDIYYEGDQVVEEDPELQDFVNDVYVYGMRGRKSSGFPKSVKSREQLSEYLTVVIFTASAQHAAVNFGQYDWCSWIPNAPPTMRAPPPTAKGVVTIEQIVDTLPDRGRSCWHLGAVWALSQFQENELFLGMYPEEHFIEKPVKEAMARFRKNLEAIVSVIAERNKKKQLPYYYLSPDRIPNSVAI
Test: Activity of compounds against 5-LO enzyme (LTB4 measurement and/or fluorescence method)
Assay type: biochemical
Settings: 5-LO, single concentration of 10 uM in duplicate
Listing: inhibition at 10 µM of selected molecules

Illustrative cases are given below, each with its answer.
{"molecule": "CCc1nc2ccc(Cl)cn2c1C(=O)OCc1ccc(-c2ccccc2)cc1 [compound 162]", "inhibition at 10 µM": "40 to 69%"}
{"molecule": "CCc1nc2ccc(Cl)cn2c1CNCc1ccc(N(C)C)cc1 [compound 339]", "inhibition at 10 µM": "< 40%"}
{"molecule": "CCc1nc2ccc(Cl)cn2c1C(=O)NCc1nc2ccc(Cl)cc2o1 [compound 369]", "inhibition at 10 µM": "< 40%"}
{"molecule": "CCc1nc2c(F)cccn2c1C(=O)NCc1ccc(N2CCOCC2)cc1 [compound 242]", "inhibition at 10 µM": "< 40%"}
{"molecule": "CCc1nc2ccc(Cl)cn2c1C(=O)NCc1ccc(N2CCC(C(=O)c3ccc(F)cc3)CC2)cc1 [compound 323]", "inhibition at 10 µM": "< 40%"}
{"molecule": "CCc1nc2ccc(Cl)cn2c1C(=O)NCc1ccc(N2CCC(COC)CC2)cc1 [compound 247]", "inhibition at 10 µM": "40 to 69%"}
{"molecule": "CCc1nc2ccc(Cl)cn2c1C(=O)NCc1ccc(OCc2ccc(F)cc2)cc1 [compound 172]", "inhibition at 10 µM": "< 40%"}
{"molecule": "CCc1nc2ccc(Cl)cn2c1CNCCc1ccncc1 [compound 344]", "inhibition at 10 µM": "< 40%"}

Prompt: Identify the measured inhibition at 10 µM of Cc1nc2c(C(F)(F)F)cccn2c1C(=O)NCc1ccccc1 [compound 36] for Human 5-lipoxygenase (Homo sapiens, UniProt P09917).
Completion: < 40%
